Tested on: SK-N-SH (Homo sapiens)
Procedure Summary: Induction of autophagy in human SK-N-SH cells expressing EGFP-HDQ74 assessed as reduction in EGFP-HDQ74 aggregation at 1 uM after 48 hrs by densitometric analysis
Calls of active or inactive are those of the source. The rule behind the calls is not given here.
Outcome codes: active, inactive

>  <Compound>
CN(C)C(=O)C(CCN1CCC(O)(c2ccc(Cl)cc2)CC1)(c1ccccc1)c1ccccc1 [LOPERAMIDE]

>  <Measured On>
SK-N-SH (Homo sapiens)

>  <Class>
active

$$$$
>  <Compound>
COc1ccc(CCN(C)CCCC(C#N)(c2ccc(OC)c(OC)c2)C(C)C)cc1OC (centres undefined)

>  <Measured On>
SK-N-SH (Homo sapiens)

>  <Class>
active

$$$$
>  <Compound>
CCCCc1oc2ccccc2c1C(=O)c1cc(I)c(OCCN(CC)CC)c(I)c1

>  <Measured On>
SK-N-SH (Homo sapiens)

>  <Class>
active

$$$$
>  <Compound>
COC(=O)C1=C(C)NC(C)=C([N+](=O)[O-])C1c1ccccc1C(F)(F)F (racemic)

>  <Measured On>
SK-N-SH (Homo sapiens)

>  <Class>
inactive

$$$$
>  <Compound>
CCCC(CCC)C(=O)O

>  <Measured On>
SK-N-SH (Homo sapiens)

>  <Class>
active

$$$$
>  <Compound>
Nc1cc(N2CCCCC2)nc(N)[n+]1[O-]

>  <Measured On>
SK-N-SH (Homo sapiens)

>  <Class>
active

$$$$
>  <Compound>
COCCOC(=O)C1=C(C)NC(C)=C(C(=O)OC(C)C)C1c1cccc([N+](=O)[O-])c1 (centres undefined)

>  <Measured On>
SK-N-SH (Homo sapiens)

>  <Class>
active

$$$$
>  <Compound>
CCOC(=O)C1=C(C)NC(C)=C(C(=O)OC)C1c1cccc([N+](=O)[O-])c1 (centres undefined)

>  <Measured On>
SK-N-SH (Homo sapiens)

>  <Class>
active

$$$$
>  <Compound>
Clc1cccc(Cl)c1NC1=NCCN1

>  <Measured On>
SK-N-SH (Homo sapiens)

>  <Class>
active

$$$$
